B1: SPOPL (parent)
chain: AKREETKAMESQRAYRFVQGKDWG

variants of: B1; experiment: protein stability index of a GFP-peptide fusion (GPS, HEK-293T) (PSI 1-6); higher = more stable; details: c terminus: a fixed tail appended;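 further: lentivirally expressed fusions sorted by FACS into six bins by GFP to DsRed ratio, PSI derived from sequencing read proportions per bin multiplied by bin number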
I'd be grateful if you could share measured protein stability index for these entries.
One number for each entry.

{"columns": ["mutation_name", "readout_kind", "endpoint_value"],
 "data": [
  ["M9P", "protein stability index", 3.27]
]}

Hi! Can you tell me protein stability index for each of these variants?
1. G20A
2. R3C
3. E5K
4. Q19W
5. R16Q
6. R13N

**Result**
1: 3.33; 2: 2.26; 3: 2.79; 4: 2.38; 5: 4.17; 6: 3.92
